Consider the following compounds and their measured pEC50 readings.
Species on record: Mus musculus
Assay: Inhibition of the electrically induced muscle contractions was determined using the mouse vas deferens
Assay type: functional
Settings: Mus musculus
pEC50: −log10 of the molar value.
recorded_metric: pEC50

[
  {
    "compound": "C=CCN1C[C@H](C)N([C@@H](c2cccc(O)c2)c2cccc(C(=O)N(C)CCc3ccccc3)c2)C[C@H]1C",
    "recorded_metric": "pEC50",
    "measured_result": 9.47
  },
  {
    "compound": "C=CCN1C[C@H](C)N([C@H](c2cccc(O)c2)c2cccc(C(=O)N(C)c3ccccc3)c2)C[C@H]1C",
    "recorded_metric": "pEC50",
    "measured_result": 9.33
  },
  {
    "compound": "C=CCN1C[C@H](C)N([C@@H](c2cccc(O)c2)c2cccc(C(=O)N(C)c3ccc([N+](=O)[O-])cc3)c2)C[C@H]1C",
    "recorded_metric": "pEC50",
    "measured_result": 8.64
  },
  {
    "compound": "C=CCN1C[C@H](C)N(C(c2ccc(C(=O)N(CC)CC)cc2)c2cccc(O)c2)C[C@H]1C (single isomer, unassigned)",
    "recorded_metric": "pEC50",
    "measured_result": 9.70
  },
  {
    "compound": "C=CCN1C[C@H](C)N([C@@H](c2cccc(O)c2)c2cccc(C(=O)N(CCCC)c3ccccc3)c2)C[C@H]1C",
    "recorded_metric": "pEC50",
    "measured_result": 8.77
  },
  {
    "compound": "C=CCN1C[C@H](C)N([C@@H](c2cccc(O)c2)c2cccc(C(=O)N(C)c3ccc(F)cc3)c2)C[C@H]1C",
    "recorded_metric": "pEC50",
    "measured_result": 8.96
  },
  {
    "compound": "C=CCN1C[C@H](C)N([C@@H](c2cccc(O)c2)c2cccc(C(=O)N(C)c3ccccc3C(F)(F)F)c2)C[C@H]1C",
    "recorded_metric": "pEC50",
    "measured_result": 9.02
  },
  {
    "compound": "C=CCN1C[C@H](C)N([C@@H](c2cccc(O)c2)c2cccc(C(=O)N(CC)c3ccccc3)c2)C[C@H]1C",
    "recorded_metric": "pEC50",
    "measured_result": 9.02
  },
  {
    "compound": "C=CCN1C[C@H](C)N([C@@H](c2cccc(O)c2)c2cccc(C(=O)N(C)Cc3ccccc3)c2)C[C@H]1C",
    "recorded_metric": "pEC50",
    "measured_result": 8.25
  },
  {
    "compound": "C=CCN1C[C@H](C)N([C@@H](c2cccc(O)c2)c2cccc(C(=O)N(C)c3ccc(Cl)cc3)c2)C[C@H]1C",
    "recorded_metric": "pEC50",
    "measured_result": 8.59
  },
  {
    "compound": "C=CCN1C[C@H](C)N([C@@H](c2cccc(O)c2)c2cccc(C(=O)N(C)c3ccccc3)c2)C[C@H]1C",
    "recorded_metric": "pEC50",
    "measured_result": 8.77
  },
  {
    "compound": "C=CCN1C[C@H](C)N([C@@H](c2cccc(O)c2)c2cccc(C(=O)N(c3ccccc3)C3CC3)c2)C[C@H]1C",
    "recorded_metric": "pEC50",
    "measured_result": 8.85
  },
  {
    "compound": "C=CCN1C[C@H](C)N([C@@H](c2cccc(O)c2)c2cccc(C(=O)N(CCC)c3ccccc3)c2)C[C@H]1C",
    "recorded_metric": "pEC50",
    "measured_result": 8.62
  },
  {
    "compound": "C=CCN1C[C@H](C)N([C@@H](c2cccc(O)c2)c2cccc(C(=O)N(C)c3ccccc3F)c2)C[C@H]1C",
    "recorded_metric": "pEC50",
    "measured_result": 9.16
  },
  {
    "compound": "C=CCN1C[C@H](C)N([C@@H](c2cccc(O)c2)c2cccc(C(=O)N(CC)c3ccc(F)cc3)c2)C[C@H]1C",
    "recorded_metric": "pEC50",
    "measured_result": 8.85
  }
]
